# pKd per entry
# system-under-test: T1, human GPC3 (human, UniProt P51654 25-563)
# T1 construct: range 25-563; soluble analyte; also called soluble human GPC3; glypican 3
# T1 sequence (P51654 25-563 limits assumed): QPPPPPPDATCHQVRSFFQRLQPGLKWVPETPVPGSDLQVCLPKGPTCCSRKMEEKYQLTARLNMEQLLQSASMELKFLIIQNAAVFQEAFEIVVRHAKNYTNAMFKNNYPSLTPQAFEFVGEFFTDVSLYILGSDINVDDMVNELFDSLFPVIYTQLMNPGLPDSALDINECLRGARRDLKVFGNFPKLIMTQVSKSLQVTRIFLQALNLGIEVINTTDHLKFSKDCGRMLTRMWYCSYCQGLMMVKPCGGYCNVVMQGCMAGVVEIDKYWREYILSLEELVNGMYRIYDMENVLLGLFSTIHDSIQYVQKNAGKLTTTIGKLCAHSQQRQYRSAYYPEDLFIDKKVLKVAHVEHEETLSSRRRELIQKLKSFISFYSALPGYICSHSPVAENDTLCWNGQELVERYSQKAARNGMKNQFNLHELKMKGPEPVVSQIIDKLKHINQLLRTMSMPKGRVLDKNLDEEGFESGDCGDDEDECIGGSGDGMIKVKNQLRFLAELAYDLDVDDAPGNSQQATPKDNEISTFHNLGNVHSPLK
# assay-overview: SPR
Interpret pKd as the negative base-10 log of the concentration measured in mol/L.

The examples below pair each entry with its known result.
>>> reported_value("H0610-G1dh/none-Hi-Kn010G3/L0127-k0 (antibody, V domains shown, one-arm) VH: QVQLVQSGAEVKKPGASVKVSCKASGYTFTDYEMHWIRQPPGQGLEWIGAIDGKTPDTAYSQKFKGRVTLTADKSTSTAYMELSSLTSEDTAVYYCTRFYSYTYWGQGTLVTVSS VL: DIVMTQSPLSLPVTPGEPASISCRSSQSLVHSNRNTYLHWYQQKPGQAPRLLIYKVSNRPSGVPDRFSGSGSGTDFTLKISRVEAEDVGVYYCGQGTQVPYTFGQGTKLEIK")
8.51
>>> reported_value("H0610-G1dh/none-Hi-Kn010G3/L0228-k0 (antibody, V domains shown, one-arm) VH: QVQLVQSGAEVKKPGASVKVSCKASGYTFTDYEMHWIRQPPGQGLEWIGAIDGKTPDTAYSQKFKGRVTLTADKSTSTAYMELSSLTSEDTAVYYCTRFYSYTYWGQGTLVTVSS VL: DIVMTQSPLSLPVTPGEPASISCRSSQSPVHSNRNTYIHWYQQKPGQAPRLLIYKVSNRFSGVPDRFSGSGSGTDFTLKISRVEAEDVGVYYCVQGTQVPYTFGQGTKLEIK")
9.69
>>> reported_value("H0610-G1dh/none-Hi-Kn010G3/L0263-k0 (antibody, V domains shown, one-arm) VH: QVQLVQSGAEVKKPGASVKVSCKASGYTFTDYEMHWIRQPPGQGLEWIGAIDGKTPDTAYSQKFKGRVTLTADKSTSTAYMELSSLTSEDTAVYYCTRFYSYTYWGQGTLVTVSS VL: DIVMTQSPLSLPVTPGEPASISCRSSQSPVHSNRNTYIHWYQQKPGQAPRLLIYKVSNRFSGVPDRFSGSGSGTDFTLKISRVEAEDVGVYYCAQGTQVPYTFGQGTKLEIK")
9.25

Continue with the binder presented below.
[in] What value of pKd has been reported for the following binder? GCH099-G1dh/none-Hi-Kn010G3/L0011-k0 (antibody, V domains shown, one-arm) VH: QVQLVQSGAEVKKPGASVTVSCKASGYTFTDYEMHWVRQAPGEGLEWMGAIDGWTPDTAYSEKFKGRVTLTADKSTSTAYMELSSLTSEDTAVYYCTRFYSYTYWGQGTLVTVSS VL: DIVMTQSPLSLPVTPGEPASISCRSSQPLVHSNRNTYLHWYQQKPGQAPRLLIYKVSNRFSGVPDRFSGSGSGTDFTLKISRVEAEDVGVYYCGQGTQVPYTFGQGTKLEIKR
[out] 8.56
